assay: small-molecule binders of probe aLefty1, primary screen, biochemical, small-molecule microarray, 635/667 nm fluorescence (AID 1153); conditions: higher = more signal;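 also: score merges spot fluorescence with signal-to-noise ratio from the scanned slide images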
composite z-score overview

# Molecule, composite z-score
data = [
    ("CN(C)CCCCCCNC(=O)[C@H]1C[C@H]2C(=O)N[C@@H](CCCCN)C(=O)N2[C@H]1c1ccc(O)cc1", 2.82),
    ("CC(=O)C1=CCC(c2ccccc2)N(S(=O)(=O)c2ccc(C)cc2)C1 (stereo not given)", 0.157),
    ("O=C1OCCC=C[C@H]2OC34C=CCN(Cc5ccccc5)C(=O)[C@H]3N(CCCO)C(=O)[C@@H]4C12 (stereo not given in full)", -0.101),
    ("CC(=O)Nc1cc(Br)ccc1C(=O)O", 0.0494),
    ("COc1cc2c(cc1O)C(C)N(Cc1cccc(OC(F)(F)F)c1)CC2 (stereo not given)", -0.0015),
]

---

experiment: CREB reporter modulators without forskolin, primary screen, cell-based, PC12, CRE-LacZ reporter, unstimulated (AID 1145); conditions: no forskolin, luminescence, 4.5 h, higher = more signal, called active from +8 up or from −8 down
Param threshold (0.02) applies to z-score; output Yes when value >= threshold, No when value < threshold.

# Compound, Discrete label
data = [
    ("CC(C)NC(=O)[C@@H]1c2ccccc2C(=O)N(Cc2ccccc2Cl)[C@H]1c1ccc(CO)cc1", "Yes"),
    ("COc1ccc(CCNC(=O)[C@@H]2c3ccccc3C(=O)N(Cc3ccc(OC(F)(F)F)cc3)[C@H]2c2ccc(CO)cc2)cc1", "No"),
    ("[N-]=[N+]=NCc1ccccc1[C@@H]1OC(c2ccc(OCCCO)cc2)=N[C@]1(Cc1ccccc1N=[N+]=[N-])C(=O)NCc1ccccc1", "No"),
    ("CN1CCC(CCCO)=CC1c1ccc(CN2CCCC2)cc1 (centres undefined)", "No"),
    ("O=C1N(CCS(=O)(=O)c2ccccc2)Cc2ccccc2[C@H]2OC(c3ccc(OCCCO)cc3)=N[C@@]12CCS(=O)(=O)c1ccccc1", "Yes"),
    ("Cc1cc(C)c(C(O)C2C=CC3C(=O)N(c4ccccc4)C(=O)C3N2Nc2ccc(C#N)cc2)c(C)c1 (centres undefined)", "Yes"),
    ("[N-]=[N+]=NCc1ccccc1C[C@@]1(C(=O)NCC(O)CO)N=C(c2ccc(OCCCO)cc2)O[C@@H]1c1ccccc1CN=[N+]=[N-] (some centres undefined)", "No"),
    ("CCCNC(=O)[C@@]1(c2ccc([N+](=O)[O-])cc2)CC(=O)N(CC23CC4CC(CC(C4)C2)C3)[C@@H]1c1ccc(CO)cc1", "Yes"),
    ("[N-]=[N+]=NCc1ccccc1C[C@]1(C(=O)O)N=C(c2ccc(OCCCO)cc2)O[C@H]1c1ccccc1", "No"),
    ("CCOc1cc(C(O)C2C=CC3C(=O)N(c4ccccc4)C(=O)C3N2Nc2ccc([N+](=O)[O-])cc2)ccc1O (centres undefined)", "Yes"),
    ("O=C1O[C@H](c2ccccc2)[C@H](c2ccccc2)N2[C@H]1[C@@H](C(=O)O)[C@]1(C(=O)Nc3ccc(C#CC4(O)CCCCCC4)cc31)[C@H]2c1ccc(OCCO)cc1", "Yes"),
    ("CC(C)CNC(=O)[C@@H]1c2ccccc2C(=O)N(Cc2cc(C(F)(F)F)cc(C(F)(F)F)c2)[C@H]1c1ccc(CO)cc1", "No"),
    ("C=C(COC)C(=O)CC[C@@H](OC(=O)c1cccnc1)c1ccc(CO)o1", "Yes"),
    ("CCOC(=O)C1=C[C@@H](C(C)C)N(S(=O)(=O)c2ccc(C)cc2)[C@H]1c1ccc(C(C)C)cc1", "No"),
    ("COc1cc2c(cc1OC)CN(C(=O)[C@@H]1[C@H]3C(=O)O[C@H](c4ccccc4)[C@H](c4ccccc4)N3[C@H](c3ccccc3OCCO)[C@@]13C(=O)Nc1ccc(C#CCNC(N)=O)cc13)CC2", "No"),
    ("C=CCC(OC(C)=O)[C@@H]1[C@@H](N(Cc2cccc3ccccc23)C(=O)c2cccc3ccccc23)c2cc(OCCCO)ccc2N1C(=O)c1ccc2ccccc2n1 (some centres undefined)", "Yes"),
    ("Cc1ccccc1C(O)C1C=CC2C(=O)N(C)C(=O)C2N1N1CCCCC1 (centres undefined)", "No"),
    ("CC(C)(C)N1CC=CC23O[C@@H]4C=CCOC(=O)[C@@H]4[C@H]2C(=O)N(CCCCCO)[C@@H]3C1=O (some centres undefined)", "No"),
    ("N#Cc1ccc(NN2C(C(O)C3CCCCC3)C=CC3C(=O)N(c4ccccc4)C(=O)C32)cc1 (centres undefined)", "Yes"),
    ("CCC(CC)C(O)C1C=CC2C(=O)N(c3ccccc3)C(=O)C2N1Nc1ccc(C#N)cc1 (centres undefined)", "Yes"),
    ("COc1ccc(C#Cc2ccc3c(c2)[C@]2(C(=O)N3)[C@H](c3ccc(O)cc3)N3[C@H](c4ccccc4)[C@H](c4ccccc4)OC(=O)[C@H]3[C@@H]2C(=O)N2CCCCCCC2)cc1", "Yes"),
    ("CC(C)Cc1ccc(CN2CC[C@@H](NS(=O)(=O)c3ccccc3)C2)cc1", "Yes"),
    ("COCCCNC(=O)[C@@]1(CCC(=O)OC(C)(C)C)N=C(c2ccc(OCCCO)cc2)O[C@H]1c1ccccc1CN=[N+]=[N-]", "No"),
    ("Cc1ccc(S[C@]2(C(=O)NC3CC3)CC(=O)N(C3CCCCC3)[C@@H]2c2ccc(CO)cc2I)cc1", "Yes"),
    ("O=C1OCCC=C[C@H]2OC34C=CCN(c5ccc6ccccc6c5)C(=O)[C@H]3N(CCCCCO)C(=O)[C@@H]4C12 (some centres undefined)", "Yes"),
    ("COC(=O)[C@@]1(Cc2ccc(F)cc2)[C@H]2c3cc(C(=O)N(C)C)n(CCc4ccccn4)c3C[C@H]2CN1C(=O)c1ccccc1", "Yes"),
    ("Cc1ccccc1C(O)C1C=CC2C(=O)N(C)C(=O)C2N1Nc1ccccc1 (centres undefined)", "No"),
    ("COc1ccc(NN2C(C(O)c3ccc(OC)c(OCc4ccccc4)c3)C=CC3C(=O)N(C4CCCCC4)C(=O)C32)cc1 (centres undefined)", "No"),
]

---

experiment: modulators of HCV replicon luciferase signal, primary screen, HCV replication inhibitor project, Huh7 cells, luciferase reporter (AID 1109); conditions: 48 h, higher = more signal;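 also: huh7 hepatoma cells harbouring a luciferase neomycin HCV replicon reporter; luciferase luminescence as measure of HCV replicon replication; test concentration not given here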
Observed property: z-score

# Compound, Observed property, Recorded measurement
records = [
    ("[N-]=[N+]=NCc1ccccc1C[C@]1(C(=O)O)N=C(c2ccc(OCCCO)cc2)O[C@H]1c1ccccc1CN=[N+]=[N-]", "z-score", -1.21),
    ("NC(=O)NCC#Cc1ccc2c(c1)[C@]1(C(=O)N2)[C@H](C(=O)NC[C@H](O)c2ccccc2)[C@H]2C(=O)O[C@H](c3ccccc3)[C@H](c3ccccc3)N2[C@@H]1c1ccc(O)cc1", "z-score", -0.257),
    ("COc1ccc([Si](C)(C)[C@@H]2[C@@H](CCn3cc([C@H](O)c4ccccc4)nn3)O[C@]3(C(=O)N(Cc4ccc(N5C(=O)c6cccc7cccc5c67)cc4)c4ccccc43)[C@H]2C)cc1", "z-score", -2.88),
    ("N#Cc1ccc(NN2C(C(O)c3ccc([N+](=O)[O-])cc3)C=CC3C(=O)N(c4ccccc4)C(=O)C32)cc1 (stereo unspecified)", "z-score", 0.69),
    ("CC(C)(C)N1CC=CC23O[C@@H]4C=CCOC(=O)[C@@H]4[C@H]2C(=O)N(CCCCCO)[C@@H]3C1=O (stereo partly specified)", "z-score", -0.394),
    ("CC(C)C(=C=CC[C@@H](O)c1ccccc1OCCO)C[C@@H](O)c1ccccn1", "z-score", -1.14),
    ("COC(=O)[C@@]1(Cc2ccc(OC)cc2)[C@H]2c3cc(C(=O)N(C)C)n(Cc4c(OC)[nH]cc(C)c4=O)c3C[C@H]2CN1C(=O)c1ccccc1", "z-score", -1.1),
    ("COCCOC(=O)N1C(=O)[C@@]2(c3cc(C#CCC(C(=O)OC)C(=O)OC)ccc31)[C@H](C(=O)N1CCN(c3ncccn3)CC1)[C@H]1C(=O)O[C@H](c3ccccc3)[C@H](c3ccccc3)N1[C@@H]2c1ccc(OCCO)cc1", "z-score", -0.974),
    ("COc1ccc(C#Cc2ccc3c(c2)[C@]2(C(=O)N3)[C@H](C(=O)NC[C@H](O)c3ccccc3)[C@H]3C(=O)O[C@H](c4ccccc4)[C@H](c4ccccc4)N3[C@@H]2c2ccccc2OCCO)cc1", "z-score", -2.86),
    ("CC(C)NC(=O)[C@@H]1c2ccccc2C(=O)N(Cc2ccccc2)[C@H]1c1ccc(CO)cc1", "z-score", -0.777),
    ("O=C1N(CCS(=O)(=O)c2ccccc2)c2ccccc2C[C@@]12COC(c1ccc(OCCCO)cc1)=N2", "z-score", -1.49),
    ("C=CCOC(=O)[C@@H]1[C@H]2C(=O)O[C@H](c3ccccc3)[C@H](c3ccccc3)N2[C@H](c2ccc(OCCOC(=O)[C@@H]3C[C@@H]4C(=O)N[C@@H](Cc5ccccc5)C(=O)N4[C@@H]3c3cccc(OCCO)c3)cc2)[C@@]12C(=O)Nc1ccc(I)cc12", "z-score", -1.34),
    ("COc1ccc([Si](C)(C)[C@H]2[C@H](CCn3cc(CCO)nn3)O[C@@]3(C(=O)N(Cc4ccc(N5CCOC5=O)cc4)c4ccccc43)[C@@H]2C)cc1", "z-score", -4.2),
    ("COCCOC(=O)N1C(=O)[C@@]2(c3cc(C#CCNC(N)=O)ccc31)[C@H](C(=O)N1CCN(c3ncccn3)CC1)[C@H]1C(=O)O[C@H](c3ccccc3)[C@H](c3ccccc3)N1[C@@H]2c1ccccc1OCCO", "z-score", -1.05),
    ("CCCCCCCCCCC(O)C1C=CC2C(=O)N(Cc3ccccc3)C(=O)C2N1n1cnnc1 (stereo unspecified)", "z-score", -1.2),
    ("C=C(CCCC)C(=O)CC[C@H](OC(=O)c1cccnc1)c1cccc(OCCO)c1", "z-score", -3.04),
    ("C=C(COC)C(=O)CC[C@@H](OC(=O)c1cccnc1)c1ccc(CO)o1", "z-score", -0.778),
    ("CN1CCC(CCCO)=CC1c1ccc(CN2CCCC2)cc1 (stereo unspecified)", "z-score", -1.94),
    ("O=C1N(CCS(=O)(=O)c2ccccc2)Cc2ccccc2C[C@]12N=C(c1ccc(OCCCO)cc1)O[C@@H]2c1ccccc1", "z-score", -2.19),
    ("CC(C)C[C@@H]1NC(=O)[C@H]2C[C@@H](C(=O)NCCCCCNC(=O)CS)[C@@H](c3cccc(OCCO)c3)N2C1=O", "z-score", -0.265),
    ("CCOC(=O)C[C@H]1[C@H](OC(=O)c2ccccc2-c2ccccc2)[C@@H](NC(=O)c2ccc3ccccc3c2)c2cc(OCCCO)ccc2N1C(=O)c1ccc2ccccc2n1", "z-score", -1.08),
    ("COCCOC(=O)N1C(=O)[C@@]2(c3cc(C#CC4=CCCCC4)ccc31)[C@H](C(=O)N1CCc3cc(OC)c(OC)cc3C1)[C@H]1C(=O)O[C@H](c3ccccc3)[C@H](c3ccccc3)N1[C@@H]2c1ccccc1OCCO", "z-score", -1.35),
    ("O=C1O[C@@H](c2ccccc2)[C@@H](c2ccccc2)N2[C@@H](c3ccc(O)cc3)[C@]3(C(=O)Nc4ccc(C#CC5=CCCCC5)cc43)[C@@H](C(=O)O)[C@H]12", "z-score", 0.0664),
    ("COc1ccc(C(O)C2C=CC3C(=O)N(C)C(=O)C3N2Nc2ccccc2)cc1OCc1ccccc1 (stereo unspecified)", "z-score", -0.685),
    ("CCOC(=O)C[C@H]1[C@H](OC(=O)c2ccc(C(=O)c3ccccc3)cc2)[C@@H](NC(=O)C2CCCCC2)c2cc(OCCCO)ccc2N1C(=O)c1ccccc1", "z-score", -2.27),
    ("Cc1ccc(F)cc1S(=O)(=O)N[C@@H]1CCN(Cc2ccc(-c3ccccc3)cc2)C1", "z-score", -4.36),
]
